# SYSTEM NAME: NTCP (hepatic sodium/bile acid cotransporter) (Homo sapiens)
# PROCEDURE TEXT: TP_TRANSPORTER: inhibition of Taurocholate uptake (Ursodeoxycholate:10 micro;M) in NTCP-expressing HeLa cells
# Assay type: functional, cell-based
# Parameters: scale not given: the % may be the effect or the level left
# MEASUREMENT SETUP: HeLa cells that express NTCP, probe taurocholate, read-out: Activity
QUANTITY KIND: activity at 10 µM (%)
Entry rule: numbers only, all in %.

I would be grateful if you could share the reported activity at 10 µM for C[C@H](CCC(=O)O)[C@H]1CC[C@H]2[C@@H]3[C@@H](O)C[C@@H]4C[C@H](O)CC[C@]4(C)[C@H]3CC[C@]12C [URSODIOL] . 30

----------
# SYSTEM NAME: OCT1 (solute carrier family 22 member 1) (Homo sapiens, UniProt O15245)
# Sequence (O15245 whole entry): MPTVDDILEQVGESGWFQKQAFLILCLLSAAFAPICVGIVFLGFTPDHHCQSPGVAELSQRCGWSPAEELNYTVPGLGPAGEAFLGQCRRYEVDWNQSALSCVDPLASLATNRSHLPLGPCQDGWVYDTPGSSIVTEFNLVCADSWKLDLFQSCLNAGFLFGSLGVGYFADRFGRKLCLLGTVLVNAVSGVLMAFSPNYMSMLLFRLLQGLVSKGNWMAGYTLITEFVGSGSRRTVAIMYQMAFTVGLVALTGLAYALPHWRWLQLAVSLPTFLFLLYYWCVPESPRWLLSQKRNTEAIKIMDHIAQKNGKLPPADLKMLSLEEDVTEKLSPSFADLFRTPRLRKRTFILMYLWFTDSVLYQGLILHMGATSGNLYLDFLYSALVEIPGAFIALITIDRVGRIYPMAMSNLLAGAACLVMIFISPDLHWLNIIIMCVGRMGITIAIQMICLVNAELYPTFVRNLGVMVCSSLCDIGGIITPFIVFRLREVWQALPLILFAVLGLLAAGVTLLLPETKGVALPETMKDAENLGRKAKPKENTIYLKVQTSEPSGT
# PROCEDURE TEXT: TP_TRANSPORTER: inhibition of Tetraethyl ammonium uptake (Quinidine:100 uM) in OCT1-expressing HeLa cells
# Format: functional, cell-based
# Design: scale not given: the % may be the effect or the level left
# MEASUREMENT SETUP: HeLa cells that express OCT1, probe tetraethyl ammonium, read-out: Activity
QUANTITY KIND: activity at 100 µM (%)
A number alone suffices; assume %.

Please look up its activity at 100 µM: "C=C[C@H]1C[N@@]2CC[C@H]1C[C@@H]2[C@@H](O)c1ccnc2ccc(OC)cc12" 20

----------
# SYSTEM NAME: UniProtKB Q9Y6L6
# Sequence (Q9Y6L6 whole entry): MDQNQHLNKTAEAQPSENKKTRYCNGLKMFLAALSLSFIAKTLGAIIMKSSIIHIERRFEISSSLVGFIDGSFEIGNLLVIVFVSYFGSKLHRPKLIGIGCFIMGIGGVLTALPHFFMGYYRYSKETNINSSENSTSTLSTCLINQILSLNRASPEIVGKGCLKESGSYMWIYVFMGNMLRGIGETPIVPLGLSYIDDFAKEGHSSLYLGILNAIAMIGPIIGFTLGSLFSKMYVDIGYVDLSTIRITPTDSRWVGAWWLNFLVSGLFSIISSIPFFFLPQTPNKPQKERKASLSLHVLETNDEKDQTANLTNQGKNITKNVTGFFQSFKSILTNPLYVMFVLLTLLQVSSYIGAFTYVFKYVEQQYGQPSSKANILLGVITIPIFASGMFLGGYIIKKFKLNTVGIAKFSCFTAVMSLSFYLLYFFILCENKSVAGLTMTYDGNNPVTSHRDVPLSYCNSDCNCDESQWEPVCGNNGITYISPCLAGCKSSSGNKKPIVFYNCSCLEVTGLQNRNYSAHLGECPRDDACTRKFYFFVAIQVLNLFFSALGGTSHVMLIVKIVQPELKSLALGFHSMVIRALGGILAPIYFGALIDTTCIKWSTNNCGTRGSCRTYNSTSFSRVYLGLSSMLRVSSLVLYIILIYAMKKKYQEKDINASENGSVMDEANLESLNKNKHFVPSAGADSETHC
# PROCEDURE TEXT: TP_TRANSPORTER: inhibition of estradiol-17beta-D-glucuronide uptake (Lovastatin:10 uM) in OATP1B1-expressing HeLa cells
# Format: functional, cell-based
# Set-up: scale not given: the % may be the effect or the level left
# MEASUREMENT SETUP: HeLa cells that express OATP1B1, probe estradiol-17beta-D-glucuronide, read-out: Activity
QUANTITY KIND: activity at 10 µM (%)
Give a bare numeral; the unit % is implied.

// lookup activity at 10 µM for "CC[C@H](C)C(=O)O[C@H]1C[C@@H](C)C=C2C=C[C@H](C)[C@H](CC[C@@H]3C[C@@H](O)CC(=O)O3)[C@H]21" 40

----------
# SYSTEM NAME: NTCP (hepatic sodium/bile acid cotransporter) (Homo sapiens, UniProt Q14973)
# Sequence (Q14973 whole entry): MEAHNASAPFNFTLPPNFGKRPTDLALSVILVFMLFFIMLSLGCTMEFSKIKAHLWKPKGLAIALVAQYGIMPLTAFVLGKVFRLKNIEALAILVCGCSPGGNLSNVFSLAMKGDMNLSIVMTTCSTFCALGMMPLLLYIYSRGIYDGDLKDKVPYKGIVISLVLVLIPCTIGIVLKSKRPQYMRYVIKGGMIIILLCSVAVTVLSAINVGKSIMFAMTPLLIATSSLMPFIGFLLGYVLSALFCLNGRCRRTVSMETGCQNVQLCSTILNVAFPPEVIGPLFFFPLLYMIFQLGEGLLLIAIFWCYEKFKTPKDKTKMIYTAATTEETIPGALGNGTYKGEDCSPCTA
# PROCEDURE TEXT: TP_TRANSPORTER: inhibition of Taurocholate uptake (Caspofungin:100 uM) in NTCP-expressing HeLa cells
# Assay type: functional, cell-based
# Parameters: scale not given: the % may be the effect or the level left
# MEASUREMENT SETUP: HeLa cells that express NTCP, probe taurocholate, read-out: Activity
QUANTITY KIND: activity at 100 µM (%)
A number alone suffices; assume %.

Return reported activity at 100 µM; argument: "CC[C@H](C)C[C@H](C)CCCCCCCCC(=O)N[C@H]1C[C@@H](O)[C@@H](NCCN)NC(=O)[C@@H]2[C@@H](O)CCN2C(=O)[C@H]([C@H](O)CCN)NC(=O)[C@H]([C@H](O)[C@@H](O)c2ccc(O)cc2)NC(=O)[C@@H]2C[C@@H](O)CN2C(=O)[C@H]([C@@H](C)O)NC1=O" 10
